From: patent US20110059095A1

TARGET OF ASSAY: T1, Peptide F (monkey PAR-2), N-terminal biotinylated (Monkey (Macaca mulatta), N-terminal biotin via G4S linker)
T1 construct: also called Peptide F N-Term
T1 sequence (peptide, as listed by the source): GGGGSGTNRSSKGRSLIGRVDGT
METHOD NOTES: peptide ELISA titration
Record form. Attribute: EC50. Fill in for each entry.
Answers are plain numbers, in nM.

BINDER	UNIT NAME	EC50
H4H618N (antibody, human IgG4, V domains shown, also called H2M618N variable regions) VH: EVQLLESGGGLVQPGGSLRLSCAASGFTFRSYTMTWVRQAPGKGLDWVSGITDSGAGTYYGDSVKGRFTISRDNSKNTLYLQMNSLRAEDTAVYYCVKEGDSGYDLDYWGQGTLVTVSS VL: DIQMTQSPSSLSASVGDRVTITCRASQGISTYLAWLQQKPGKAPKSLIYATSSLQSGVPSKFSGSRSGTDFTLTISSLQPEDFATYYCQQYKSSPLTFGGGTKVEIK	nM	0.011

Shift focus to the following entry.
What value of measured EC50 is listed for H4H581P (antibody, human IgG4, V domains shown, also called mAb H4H581P; H1H581P variable regions) VH: QVQLVESGGGVVQPGRSLRLSCVASGFTFSRYGIHWVRQAPGKGLEWVIVISYDGINKYYADSVKGRFTISRDNSKNTVYLQMNSLRAEDTAVYYCAKGDFWSGYFDYWGQGTLVTVSS VL: DIVMTQTPLSSPVTLGQPASISCRSSQSLVHSDGNTYLSWLHQRPGQPPRLLIYKISNRFSGVPDRFSGSGAGTDFTLQISRVEAEDVGIYYCMQATQFPTFGGGTKVEIK ?
0.02
